methodNotes: qHTS of pediatric cancer cell lines to identify multiple opportunities for drug repurposing: Confirmatory screen for U-2 OS cells (AID 1347122); note: nearly all actives have a fitted effect of over 65% in size
testConditions: U-2 OS osteosarcoma cell viability; series mostly up to 45.9 µM
Records with an inconclusive call do not appear. Activity calls are given as the source filed them. Calls come from the whole dose curve; as a rule, active = well fitted cell-killing curve with a large enough effect; inconclusive = small, poorly fitted or top-dose-only effect; inactive = no such curve, though single readings can be large or run the other way.
Use one of these outcomes when replying: active, inactive

Before answering, review these 3 worked examples.
Cc1sc2c(c1C)C(c1ccc(Cl)cc1)=N[C@@H](CC(=O)OC(C)(C)C)c1nnc(C)n1-2; inactive
Cn1cc(C2=C(c3cn(C4CCN(Cc5ccccn5)CC4)c4ccccc34)C(=O)NC2=O)c2ccccc21; inactive
C[C@H]1O[C@@H](O[C@H]2[C@@H](O)C[C@H](O[C@H]3[C@@H](O)C[C@H](O[C@H]4CC[C@@]5(C)[C@H](CC[C@@H]6[C@@H]5CC[C@]5(C)[C@@H](C7=CC(=O)OC7)CC[C@]65O)C4)O[C@@H]3C)O[C@@H]2C)C[C@H](O)[C@@H]1O; active

Turning now to a further compound:
Prompt: Write down the call the test reported for this compound. Item: C=C(C)[C@H]1Cc2c(ccc3c2O[C@@H]2COc4cc(OC)c(OC)cc4[C@@H]2C3=O)O1
Response: inactive
